test protocol: Cytotoxicity against Homo sapiens (human) FL cells assessed as cell viability at 10^-4 M after 96 hr by trypan blue exclusion assay relative to control
Type: cell-based
condition context: read-out: Activity
Listing of entries alongside the reported viability at 96 h, 100 µM.
Report as a plain number; the unit % is understood.

Which value of viability at 96 h, 100 µM has been reported for CCOC(=O)N1c2ccccc2N(C(=O)OCC)C1CC(=O)c1ccc(O)cc1 in the records?
4.55

----------
test protocol: Cytotoxicity against Homo sapiens (human) FL cells assessed as cell viability at 10^-4 M after 72 hr by trypan blue exclusion assay relative to control
Type: cell-based
condition context: read-out: Activity
reported metric: viability at 72 h, 100 µM (%)
Reply with just the number (in %).

Consider the following illustrative entries.
# structure smiles string, viability at 72 h, 100 µM, %
records = [
    ("CCOC(=O)N1c2ccccc2N(C(=O)OCC)C1CC(=O)Cc1ccccc1", 5.45),
    ("CCOC(=O)N1c2ccccc2N(C(=O)OCC)C1CC(=O)c1ccc(O)cc1", 7.27),
    ("CCOC(=O)N1c2cc(C)c(C)cc2N(C(=O)OCC)C1CC(=O)c1ccccc1", 60),
]

Entry under review: CCOC(=O)N1c2ccccc2N(C(=O)OCC)C1CC(=O)/C=C/c1ccccc1 . Reported viability at 72 h, 100 µM?
83.6

Please give the result for CCOC(=O)N1c2cc(C)c(C)cc2N(C(=O)OCC)C1CC(C)=O too.
15.4

----------
The entries below are paired with their reported viability at 96 h, 100 µM.
test protocol: Cytotoxicity against Homo sapiens (human) FL cells assessed as cell viability at 10^-4 M after 96 hr by trypan blue exclusion assay relative to control
Format: cell-based
condition context: read-out: Activity
Give your result in % as a bare value.

Look over these answered cases.
# structure smiles string, reported metric, unit info, experimental value
data = [
    ("CCOC(=O)N1c2ccccc2N(C(=O)OCC)C1CC(=O)/C=C/c1ccccc1", "viability at 96 h, 100 µM", "%", 81.1),
    ("CCOC(=O)N1c2ccccc2N(C(=O)OCC)C1CC(C)=O", "viability at 96 h, 100 µM", "%", 0),
]

Please give the measured viability at 96 h, 100 µM for this molecule: CCOC(=O)N1c2cc(C)c(C)cc2N(C(=O)OCC)C1CC(=O)c1ccccc1
62.1

And then CCOC(=O)N1c2ccccc2N(C(=O)OCC)C1CC(=O)c1ccccc1 , what is it?
77.3

Another molecule to look at: CCOC(=O)N1c2ccccc2N(C(=O)OCC)C1CC(=O)Cc1ccccc1
3.03

How about this molecule: CCOC(=O)N1c2cc(C)c(C)cc2N(C(=O)OCC)C1CC(C)=O
39.4

Subsequent entry: CCOC(=O)N1c2cc(C)c(C)cc2N(C(=O)OCC)C1CC(=O)/C=C/c1ccccc1
74.2

Same read-out for CCOC(=O)N1c2cc(C)c(C)cc2N(C(=O)OCC)C1CC(=O)c1ccc(OC)cc1 ?
65.9
